# test target: rat CB2 receptor (rCB2) (Rattus norvegicus, UniProt Q9QZN9)
# Sequence (Q9QZN9 1-360): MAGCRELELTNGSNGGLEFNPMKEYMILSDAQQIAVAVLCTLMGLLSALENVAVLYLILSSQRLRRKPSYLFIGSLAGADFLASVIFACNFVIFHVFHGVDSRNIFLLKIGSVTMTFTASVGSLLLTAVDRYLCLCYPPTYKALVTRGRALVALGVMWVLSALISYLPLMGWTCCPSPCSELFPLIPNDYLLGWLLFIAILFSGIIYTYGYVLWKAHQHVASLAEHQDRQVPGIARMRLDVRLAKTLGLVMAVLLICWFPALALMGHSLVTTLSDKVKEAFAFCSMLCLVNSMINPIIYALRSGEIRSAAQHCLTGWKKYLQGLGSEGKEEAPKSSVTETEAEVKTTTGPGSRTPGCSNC
# assay text: cell-based
# Format: cell-based
# experimental parameters: agonist or inverse agonist at rCB2
quantity: +/− RCB2

Some compounds with known +/− RCB2 results, for comparison:
CNC(=O)[C@@H](NC(=O)c1nc(-c2ccoc2)n2c1CN(C)CCC2)C(C)(C)C [Compound 440]: +
CC(C)CN1CCn2c(-c3ccccc3)nc(C(=O)N[C@H](C(=O)N(C)C)C(C)(C)C)c2C1 [Compound 80]: −
CN1CCCn2c(-c3cc(Cl)ccc3F)nc(C(=O)N[C@@H](CC(C)(C)C)C(N)=O)c2C1 [Compound 585]: +
CNC(=O)[C@@H](NC(=O)c1nc(-c2ccc(F)cc2Cl)n2c1CN(C)CCC2)C(C)(C)C [Compound 337]: +
CNC(=O)[C@@H](NC(=O)c1nc(C2CCCCCC2)n2c1CN(C)CCC2)C(C)(C)C [Compound 498]: +

### Prompt Value lookup for +/− RCB2; key = CCN1CCn2c(-c3ccccc3)nc(C(=O)N[C@H](C)C3CCCCC3)c2C1 [Compound 164]
### Response −

### Prompt Given CCN1CCCn2c(-c3ccccc3)nc(C(=O)N[C@H](c3nc(C)no3)C(C)(C)C)c2C1 [Compound 524] , state its recorded +/− RCB2.
### Response −

### Prompt What value of measured +/− RCB2 is listed for CNC(=O)[C@@H](NC(=O)c1nc(C=C(C)C)n2c1CN(C)CC2)C(C)(C)C [Compound 257] ?
### Response +
